These measurements were taken from PubChem BioAssay AID1850.

- assay_summary: PhoP regulon inhibitors, Salmonella typhi PhoP promoter GFP reporter, confirmatory (AID 1850);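 note: 0% = induced wells with vehicle and 100% = uninduced wells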
- particulars: fluorescence, 4 h, at 50 µM, stronger effect = higher value
The campaign covered roughly 310,000 compounds. About 1,000 (0.32%) were called active. The list is a sample of the results. Entries with a potency or affinity are not part of this list. Where a SMILES comes first, the peptide text is derived from it. The star is where a group is joined. Boc = CC(C)(C)OC(=O)*
Quick reference for inhibition among some compounds
Respond numerically; units are % and should not be typed.

INSERT INTO assay_data (compound, unit_name, recorded_result) VALUES
  ('Cc1occc1C(=O)NNC(=O)Nc1ccc([N+](=O)[O-])cc1', '%', 0.48),
  ('COCCn1nnnc1C(c1ccc(OC)c(OC)c1)N1CCN(c2nc3ccccc3s2)CC1 (centres undefined)', '%', -9.37);

Query: I am curious: what inhibition value has been reported for CCOc1cc2[nH]c(=O)n(CCCC(=O)NCc3ccco3)c(=O)c2cc1OCC ?
Result: -5.99

Query: Any idea what inhibition was measured for O=C1Nc2c(c(=O)[nH]c(=O)n2Cc2ccccc2)C1(NS(=O)(=O)c1ccccc1)C(F)(F)F (centres undefined) ?
Result: -5.69

Query: Query (compound): CC(C)CC(NC(=O)OC(C)(C)C)C(=O)NC(C(=O)N1CCCC1C(N)=O)C(C)C (stereo not drawn) (Boc-Leu-Val-Pro-NH2; configuration not given here) ; field requested: inhibition
Result: -15.4

Query: Value lookup for inhibition; key = O=[N+]([O-])c1ccc(-c2cnc[nH]2)cc1
Result: 1.02
